Consider the following binders; for each one, report its koff.
target: canine FcRn (FcRn large subunit with canine beta-2-microglobulin) (canine); test: SPR pH 5.9, IgG coupled to C1 chip, 1:1 kinetic fit
Dear colleague, please return just the value in s⁻¹, with no unit written.

**Q:** # koff lookup, item anti-NGF canine IgGB antibody, Fc variant A426Y + D312P (antibody, part only; not given: anti-NGF variable domains and light chain, not shown: another chain or arm of the molecule; small tags and cut ends) Fc: APEMLGGPSVFIFPPKPKDTLLIARTPEVTCVVVDLDPEDPEVQISWFVDGKQMQTAKTQPREEQFNGTYRVVSVLPIGHQPWLKGKQFTCKVNNKALPSPIERTISKARGQAHQPSVYVLPPSREELSKNTVSLTCLIKDFFPPDIDVEWQSNGQQEPESKYRTTPPQLDEDGSYFLYSKLSVDKSRWQRGDTFICYVMHEALHNHYTQESLSHSPGK
**A:** 0.0497

**Q:** Which koff value is on record for anti-NGF canine IgGB antibody, Fc variant A426H + Y436H (antibody, part only; not given: anti-NGF variable domains and light chain, not shown: another chain or arm of the molecule; small tags and cut ends) Fc: APEMLGGPSVFIFPPKPKDTLLIARTPEVTCVVVDLDPEDPEVQISWFVDGKQMQTAKTQPREEQFNGTYRVVSVLPIGHQDWLKGKQFTCKVNNKALPSPIERTISKARGQAHQPSVYVLPPSREELSKNTVSLTCLIKDFFPPDIDVEWQSNGQQEPESKYRTTPPQLDEDGSYFLYSKLSVDKSRWQRGDTFICHVMHEALHNHHTQESLSHSPGK ?
**A:** 0.13

**Q:** // koff lookup, key: anti-NGF canine IgGB antibody, Fc variant A426Y + T286L (antibody, part only; not given: Anti-NGF variable domains, not shown: another chain or arm of the molecule; small tags and cut ends) Fc: APEMLGGPSVFIFPPKPKDTLLIARTPEVTCVVVDLDPEDPEVQISWFVDGKQMQLAKTQPREEQFNGTYRVVSVLPIGHQDWLKGKQFTCKVNNKALPSPIERTISKARGQAHQPSVYVLPPSREELSKNTVSLTCLIKDFFPPDIDVEWQSNGQQEPESKYRTTPPQLDEDGSYFLYSKLSVDKSRWQRGDTFICYVMHEALHNHYTQESLSHSPGK
**A:** 0.0436

**Q:** Give its koff value. Item: anti-NGF canine IgGB antibody, Fc variant A426Y (antibody, part only; not given: Anti-NGF variable domains, not shown: another chain or arm of the molecule; small tags and cut ends) Fc: APEMLGGPSVFIFPPKPKDTLLIARTPEVTCVVVDLDPEDPEVQISWFVDGKQMQTAKTQPREEQFNGTYRVVSVLPIGHQDWLKGKQFTCKVNNKALPSPIERTISKARGQAHQPSVYVLPPSREELSKNTVSLTCLIKDFFPPDIDVEWQSNGQQEPESKYRTTPPQLDEDGSYFLYSKLSVDKSRWQRGDTFICYVMHEALHNHYTQESLSHSPGK
**A:** 0.113
